Reference for the values: ChEMBL document CHEMBL3407389

Target: Carbonic anhydrase 1 (Homo sapiens, UniProt P00915)
Sequence (P00915 whole entry): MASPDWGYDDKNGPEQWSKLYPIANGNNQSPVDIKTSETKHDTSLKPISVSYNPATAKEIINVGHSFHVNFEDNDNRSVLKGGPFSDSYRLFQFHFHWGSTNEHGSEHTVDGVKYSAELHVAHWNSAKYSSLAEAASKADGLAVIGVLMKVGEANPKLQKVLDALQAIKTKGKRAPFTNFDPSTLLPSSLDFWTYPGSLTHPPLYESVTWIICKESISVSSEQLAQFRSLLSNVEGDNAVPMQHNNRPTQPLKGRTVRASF

structure as smiles	Ki
NS(=O)(=O)c1nnc(NS(=O)(=O)c2ccc(-[n+]3ccccc3)cc2)s1	3 nM
